Reference source for all entries: patent US12139520B2

- target of assay: T1, hAMY3R (human, UniProt P30988)
- T1 sequence 1: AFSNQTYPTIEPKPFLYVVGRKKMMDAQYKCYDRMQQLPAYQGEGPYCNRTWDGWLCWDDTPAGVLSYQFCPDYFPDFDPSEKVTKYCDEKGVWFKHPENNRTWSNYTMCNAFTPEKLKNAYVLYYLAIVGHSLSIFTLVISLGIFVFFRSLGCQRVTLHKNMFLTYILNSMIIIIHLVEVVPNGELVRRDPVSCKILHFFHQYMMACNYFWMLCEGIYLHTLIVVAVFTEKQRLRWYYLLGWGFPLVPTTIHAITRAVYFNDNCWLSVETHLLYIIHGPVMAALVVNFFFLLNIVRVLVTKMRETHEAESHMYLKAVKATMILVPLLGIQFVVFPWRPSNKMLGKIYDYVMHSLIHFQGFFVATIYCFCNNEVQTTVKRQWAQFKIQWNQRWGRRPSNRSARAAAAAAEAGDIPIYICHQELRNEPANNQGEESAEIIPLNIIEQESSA
- T1 sequence 2: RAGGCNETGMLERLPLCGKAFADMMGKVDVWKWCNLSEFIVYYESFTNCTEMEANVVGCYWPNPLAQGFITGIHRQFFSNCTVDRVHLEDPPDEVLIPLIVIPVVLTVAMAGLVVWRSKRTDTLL
- method description: cell-based or functional assay
Numbered stars: 1 amine (or outer) side, 2 acyl side, 3 side chain; on linkers, the order of the positions; unused ones are H or OH. Bridge positions count the residues as written; N and C are the ends. Square brackets hold non-standard residues; d marks the D form. Ends that are not written are not given here. * marks the point of attachment. C20 diacid = O=C(O)CCCCCCCCCCCCCCCCCCC(=O)*; γGlu = O=C(O)[C@H](CCC(=O)[*:2])N[*:1]; Hyp = O=C(O)[C@@H]1C[C@@H](O)CN1
value type: hAMY3R EC50 (cAMP)

Record excerpt, results attached:
{"columns": ["binder", "hAMY3R EC50 (cAMP)"],
 "data": [
  ["{C20 diacid-γGlu}-KCNTATCTVARLAEQIYQFTDKDKDPVAPPTNVGSNG[Hyp]-NH2 (disulfide 2-7 (inferred); ends not checked) [SEQ ID NO: 133]", "0.031 nM"],
  ["GCRTGTCTVQRLAHQIYQFTNKDKDNVAPRSKISPQQ[Hyp]-NH2 (disulfide 2-7 (inferred); ends not checked) [SEQ ID NO: 232]", "0.213 nM"],
  ["{C20 diacid-γGlu}-KCNTATCTVQRLAHQIAQFTDKDKDPVAPPTNVGSNG[Hyp]-NH2 (disulfide 2-7 (inferred); not fully specified; ends not checked) [SEQ ID NO: 92]", "0.016 nM"]
]}

# next binder below
# input Reported hAMY3R EC50 (cAMP) for {C20 diacid-γGlu}-KCNTATCTVQRLAHQIYQFTDKDKDNVAPPTKVGSNG[Hyp]-NH2 (disulfide 2-7 (inferred); not fully specified; ends not checked) [SEQ ID NO: 60] : what is it?
# output 0.012 nM
